# assay_remarks: Ocular tissue concentrations (aqueous humor, vitreous humor, iris, retina, choroid, cornea) after topical ocular, subcutaneous and intravitreal administration
# Format: in vivo, New Zealand White rabbits
# measurement_conditions: New Zealand White, rabbit, iris, other: intravitreal, 2.5 mg/eye, Iris, 6.0 hr, OS; sodium salt, intravitreal 2.5 mg/eye, Group 4; read-out: Iris Conc. (ng/g) OS
quantity_measured: concentration at 6 h (ng/g)
Write it as a number; the unit ng/g goes unstated.

For the molecule shown here, COC(=O)N[C@@H](Cc1ccccc1)C(=O)N[C@@H](Cc1ccc(NS(=O)(=O)O)cc1)c1csc(-c2cccs2)n1 , give the reported concentration at 6 h.
374000

====

# assay_remarks: Ocular tissue concentrations (aqueous humor, vitreous humor, iris, retina, choroid, cornea) after topical ocular, subcutaneous and intravitreal administration
# Type: in vivo, New Zealand White rabbits
# measurement_conditions: New Zealand White, rabbit, iris, other: intravitreal, 2.5 mg/eye, Iris, 72 hr, average, intravitreal 2.5 mg/eye (group 5); read-out: Avg.
quantity_measured: concentration at 72 h
Express the reported value numerically, then name its unit.

For the compound shown here, COC(=O)N[C@@H](Cc1ccccc1)C(=O)N[C@@H](Cc1ccc(NS(=O)(=O)O)cc1)c1csc(-c2cccs2)n1 , give the reported concentration at 72 h.
10300 ng/g

====

# assay_remarks: Ocular tissue concentrations (aqueous humor, vitreous humor, iris, retina, choroid, cornea) after topical ocular, subcutaneous and intravitreal administration
# Assay type: in vivo, New Zealand White rabbits
# measurement_conditions: New Zealand White, rabbit, retina, subcutaneous, 5 mg/kg/dose, Retina, 0.5 hr, OD; sodium salt, subcutaneous 5 mg/kg/dose, Group 2; read-out: Retina Conc. (ng/g) OD
quantity_measured: concentration at 0.5 h (ng/g)
Write it as a number; the unit ng/g goes unstated.

For the compound shown here, COC(=O)N[C@@H](Cc1ccccc1)C(=O)N[C@@H](Cc1ccc(NS(=O)(=O)O)cc1)c1csc(-c2cccs2)n1 , give the reported concentration at 0.5 h.
30.5

====

# assay_remarks: Ocular tissue concentrations (aqueous humor, vitreous humor, iris, retina, choroid, cornea) after topical ocular, subcutaneous and intravitreal administration
# Assay type: in vivo, New Zealand White rabbits
# measurement_conditions: New Zealand White, rabbit, choroid, subcutaneous, 5 mg/kg/dose, TABLE 16: Choroid, 2 hr, OS; free acid, subcutaneous 5 mg/kg/dose, Group 3; read-out: Choroid Conc. (ng/g) OS
# Procedure: To measure the concentration of Compound 1 in plasma and ocular tissues following topical ocular, subcutaneous, and intravitreal administration, New Zealand White rabbits were administered Compound 1, and plasma and ocular samples were collected at pre-determined time points. […] Ocular tissue samples from both eyes of each animal were collected and weights were recorded. Plasma and ocular tissue sample concentrations of Compound 1 were determined by LC-MS/MS. […]
quantity_measured: concentration at 2 h (ng/g)
Write it as a number; the unit ng/g goes unstated.

For the compound shown here, COC(=O)N[C@@H](Cc1ccccc1)C(=O)N[C@@H](Cc1ccc(NS(=O)(=O)O)cc1)c1csc(-c2cccs2)n1 , give the reported concentration at 2 h.
53.2

====

# assay_remarks: Ocular tissue concentrations (aqueous humor, vitreous humor, iris, retina, choroid, cornea) after topical ocular, subcutaneous and intravitreal administration
# Type: in vivo, New Zealand White rabbits
# measurement_conditions: New Zealand White, rabbit, iris, other: intravitreal, 2.5 mg/eye, Iris, 48 hr, right eye, intravitreal 2.5 mg/eye (group 5), individual animals; read-out: Conc. (ng/g) OD
# Method: To measure the concentration of Compound 1 in plasma and ocular tissues following topical ocular, subcutaneous, and intravitreal administration, New Zealand White rabbits were administered Compound 1, and plasma and ocular samples were collected at pre-determined time points. […] Ocular tissue samples from both eyes of each animal were collected and weights were recorded. Plasma and ocular tissue sample concentrations of Compound 1 were determined by LC-MS/MS. […]
quantity_measured: concentration at 48 h (ng/g)
Write it as a number; the unit ng/g goes unstated.

For the compound shown here, COC(=O)N[C@@H](Cc1ccccc1)C(=O)N[C@@H](Cc1ccc(NS(=O)(=O)O)cc1)c1csc(-c2cccs2)n1 [Compound 1] , give the reported concentration at 48 h.
11100

====

# assay_remarks: Ocular tissue concentrations (aqueous humor, vitreous humor, iris, retina, choroid, cornea) after topical ocular, subcutaneous and intravitreal administration
# Type: in vivo, New Zealand White rabbits
# measurement_conditions: New Zealand White, rabbit, retina, other: intravitreal, 2.5 mg/eye, Retina, 48 hr, left eye, intravitreal 2.5 mg/eye (group 5), individual animals; read-out: Conc. (ng/g) OS
quantity_measured: concentration at 48 h (ng/g)
Write it as a number; the unit ng/g goes unstated.

For the compound shown here, COC(=O)N[C@@H](Cc1ccccc1)C(=O)N[C@@H](Cc1ccc(NS(=O)(=O)O)cc1)c1csc(-c2cccs2)n1 [Compound 1] , give the reported concentration at 48 h.
154000

====

# assay_remarks: Ocular tissue concentrations (aqueous humor, vitreous humor, iris, retina, choroid, cornea) after topical ocular, subcutaneous and intravitreal administration
# Format: in vivo, New Zealand White rabbits
# measurement_conditions: New Zealand White, rabbit, cornea, subcutaneous, 5 mg/kg/dose, TABLE 16: Cornea, 0.5 hr, OD; free acid, subcutaneous 5 mg/kg/dose, Group 3; read-out: Cornea Conc. (ng/g) OD
quantity_measured: concentration at 0.5 h (ng/g)
Write it as a number; the unit ng/g goes unstated.

For the compound shown here, COC(=O)N[C@@H](Cc1ccccc1)C(=O)N[C@@H](Cc1ccc(NS(=O)(=O)O)cc1)c1csc(-c2cccs2)n1 , give the reported concentration at 0.5 h.
6.05

====

# assay_remarks: Ocular tissue concentrations (aqueous humor, vitreous humor, iris, retina, choroid, cornea) after topical ocular, subcutaneous and intravitreal administration
# Format: in vivo, New Zealand White rabbits
# measurement_conditions: New Zealand White, rabbit, cornea, subcutaneous, 5 mg/kg/dose, Cornea, 2 hr, OD; free acid, subcutaneous 5 mg/kg/dose, Group 3; read-out: Cornea Conc. (ng/g) OD
quantity_measured: concentration at 2 h (ng/g)
Write it as a number; the unit ng/g goes unstated.

For the compound shown here, COC(=O)N[C@@H](Cc1ccccc1)C(=O)N[C@@H](Cc1ccc(NS(=O)(=O)O)cc1)c1csc(-c2cccs2)n1 , give the reported concentration at 2 h.
5.65

====

# assay_remarks: Ocular tissue concentrations (aqueous humor, vitreous humor, iris, retina, choroid, cornea) after topical ocular, subcutaneous and intravitreal administration
# Assay type: in vivo, New Zealand White rabbits
# measurement_conditions: New Zealand White, rabbit, choroid homogenate, subcutaneous, 5 mg/kg/dose, Choroid homogenate, 4 hr, OS; sodium salt, subcutaneous 5 mg/kg/dose, Group 2; read-out: Choroid Conc. (ng/mL) OS
quantity_measured: concentration at 4 h (ng/mL)
Write it as a number; the unit ng/mL goes unstated.

For the compound shown here, COC(=O)N[C@@H](Cc1ccccc1)C(=O)N[C@@H](Cc1ccc(NS(=O)(=O)O)cc1)c1csc(-c2cccs2)n1 [Compound 1] , give the reported concentration at 4 h.
1.22

====

# assay_remarks: Ocular tissue concentrations (aqueous humor, vitreous humor, iris, retina, choroid, cornea) after topical ocular, subcutaneous and intravitreal administration
# Assay type: in vivo, New Zealand White rabbits
# measurement_conditions: New Zealand White, rabbit, retina, other: intravitreal, 2.5 mg/eye, Retina, 72 hr, right eye, intravitreal 2.5 mg/eye (group 5), individual animals; read-out: Conc. (ng/g) OD
quantity_measured: concentration at 72 h (ng/g)
Write it as a number; the unit ng/g goes unstated.

For the compound shown here, COC(=O)N[C@@H](Cc1ccccc1)C(=O)N[C@@H](Cc1ccc(NS(=O)(=O)O)cc1)c1csc(-c2cccs2)n1 [Compound 1] , give the reported concentration at 72 h.
109000

====

# assay_remarks: Ocular tissue concentrations (aqueous humor, vitreous humor, iris, retina, choroid, cornea) after topical ocular, subcutaneous and intravitreal administration
# Assay type: in vivo, New Zealand White rabbits
# measurement_conditions: New Zealand White, rabbit, aqueous humor, subcutaneous, 5 mg/kg, Group 3 subcutaneous 5 mg/kg; 2.0 hr; read-out: aqueous humor Conc., individual eyes (OD, OS)
quantity_measured: concentration at 2 hr (ng/mL)
Write it as a number; the unit ng/mL goes unstated.

For the compound shown here, COC(=O)N[C@@H](Cc1ccccc1)C(=O)N[C@@H](Cc1ccc(NS(=O)(=O)O)cc1)c1csc(-c2cccs2)n1 [Compound 1 free acid] , give the reported concentration at 2 hr.
0.601

====

# assay_remarks: Ocular tissue concentrations (aqueous humor, vitreous humor, iris, retina, choroid, cornea) after topical ocular, subcutaneous and intravitreal administration
# Assay type: in vivo, New Zealand White rabbits
# measurement_conditions: New Zealand White, rabbit, iris, subcutaneous, 5 mg/kg/dose, Iris, 4 hr; sodium salt, subcutaneous 5 mg/kg/dose, Group 2; read-out: Iris Average
quantity_measured: concentration at 4 hr (ng/g)
Write it as a number; the unit ng/g goes unstated.

For the molecule shown here, COC(=O)N[C@@H](Cc1ccccc1)C(=O)N[C@@H](Cc1ccc(NS(=O)(=O)O)cc1)c1csc(-c2cccs2)n1 [Compound 1] , give the reported concentration at 4 hr.
30.4
